Item-by-item account of pKd
# measured.target: GORASP2, Q9H8Y8
# assay.details: holdup assay
# Parameters: key: below the threshold = too weak to quantify, mostly under pKd 3.1 to 4
# condition.parameters: plain residues with an end cap or a label only (N-terminal biotin on a linker: ado-ado)
measured.endpoint: pKd

{"columns": ["binder", "measured.number"],
 "data": [
  ["PSHPRLQTHV [KIRREL2, Q6UWL6]", 3.55],
  ["EIPAQSPTCV [FZD10, Q9ULW2]", 3.98]
]}
